All figures here come from patent US5733719A.

Test system: Lymphs
ASSAY INFO: Peptidases to distinguish leukemia from non-leukemia, lymphocytes
Assay type: cell-based, human
Parameters: unit not given here
SETTINGS: J4 12/2/91 AL
MEASURE: enzyme activity

> print(dat)
                                   compound  assay.target          measure  obs.value
1  C[C@H](N)C(=O)Nc1ccc2c(c1)Oc1cc(NC(=O)[C@H](C)N)ccc1C21OC(=O)c2ccccc21        Lymphs  enzyme activity      68.10
2  NCCCC[C@H](N)C(=O)Nc1ccc2c(c1)Oc1cc(NC(=O)[C@@H](N)CCCCN)ccc1C21OC(=O)c2ccccc21 [LYS, (H--L--Lys)2 Rho 110-4TFA]        Lymphs  enzyme activity       1.81
3  O=C1OC2(c3ccc(NC(=O)[C@@H]4CCCN4)cc3Oc3cc(NC(=O)[C@@H]4CCCN4)ccc32)c2ccccc21 [PRO, (H--L--Pro)2 Rho 110-2TFA]        Lymphs  enzyme activity       0.29
